molecular target: human Werner helicase (WRN-BV08, Uniprot Q14191, amino acids 517-1235 with L1074F point mutation) (Homo sapiens, UniProt Q14191, L1074F); construct: Uniprot Q14191, amino acids 517-1235 with L1074F point mutation; TEV-cleavable 8×His (C, cleaved yes); made in house; host or cells: Sf9 insect cells (baculovirus); experiment: WRN (BV08) ADP-Glo Assay; type: biochemical; settings: 0.15 nM WRN, 5 μM ATP, 0.1 nM DNA duplex, 15 min preincubation, 60 min at 25° C., pH 7.5, 1% DMSO; read-out: ADP-Glo_hWRN_IC50
Sequence (Q14191 with tags, fused parts or gaps L1074F limits assumed): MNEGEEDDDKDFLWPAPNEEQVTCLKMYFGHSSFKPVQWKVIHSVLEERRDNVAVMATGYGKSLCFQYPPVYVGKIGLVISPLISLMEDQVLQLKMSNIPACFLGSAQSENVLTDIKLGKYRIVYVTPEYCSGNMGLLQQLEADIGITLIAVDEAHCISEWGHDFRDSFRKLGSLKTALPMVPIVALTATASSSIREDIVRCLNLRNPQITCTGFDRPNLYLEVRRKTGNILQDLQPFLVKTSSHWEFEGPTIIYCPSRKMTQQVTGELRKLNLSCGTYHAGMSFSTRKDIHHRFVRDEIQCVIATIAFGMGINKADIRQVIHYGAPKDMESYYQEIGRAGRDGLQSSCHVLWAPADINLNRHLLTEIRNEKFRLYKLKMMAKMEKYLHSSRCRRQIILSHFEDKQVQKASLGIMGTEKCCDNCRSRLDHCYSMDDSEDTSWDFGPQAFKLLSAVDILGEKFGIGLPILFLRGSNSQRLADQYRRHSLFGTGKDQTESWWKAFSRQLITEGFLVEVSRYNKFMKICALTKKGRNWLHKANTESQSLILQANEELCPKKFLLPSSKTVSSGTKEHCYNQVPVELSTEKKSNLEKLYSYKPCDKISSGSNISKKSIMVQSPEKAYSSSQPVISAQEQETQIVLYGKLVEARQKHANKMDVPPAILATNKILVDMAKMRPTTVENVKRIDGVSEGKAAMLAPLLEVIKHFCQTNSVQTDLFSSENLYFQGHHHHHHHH
pIC50: −log10 of the molar value.
Examples of compounds with documented pIC50 follow.
metric.name: pIC50

- compound: "COc1ccc(COc2cc(CC(=O)N(Cc3ccnc(OC)c3)C3C=CS(=O)(=O)C3)ccc2-c2ccc(F)cn2)cc1 (centres unmarked)"
  value.reported: "< 4.30"
- compound: "COc1cc(CN(C(=O)Cn2ncc3cc(OC(F)(F)F)ccc32)[C@@H]2C=CS(=O)(=O)C2)ccn1"
  value.reported: "5.30 to 6.30"
- compound: "Cc1cccc(-c2nc(CC(=O)N(Cc3ccncc3)C3C=CS(=O)(=O)C3)cs2)c1 (centres unmarked)"
  value.reported: "< 4.30"
- compound: "CNc1cc(CN(C(=O)Cc2ccc(-n3cccc3C)cc2F)C2C=CS(=O)(=O)C2)ccn1 (centres unmarked)"
  value.reported: "5.30 to 6.30"
- compound: "O=C(Cc1csc(C2CC2)n1)N(Cc1ccncc1)C1C=CS(=O)(=O)C1 (centres unmarked)"
  value.reported: "< 4.30"
- compound: "CC(C)(C)OC(=O)NC(C(=O)N(Cc1ccccc1)C1C=CS(=O)(=O)C1)c1ccc(-n2cccc2)cc1 (centres unmarked)"
  value.reported: "< 4.30"
- compound: "CC(C)(O)c1cc(CN(C(=O)Cc2ccc(-c3ccc(F)cc3)cc2F)C2C=CS(=O)(=O)C2)ccn1 (centres unmarked)"
  value.reported: "> 6.30"
- compound: "N#Cc1cccc(CN(C(=O)Cc2ccc(-n3cccc3)cc2)C2C=CS(=O)(=O)C2)c1 (centres unmarked)"
  value.reported: "4.30 to 5.00"

* * *

Examples of compounds with documented pIC50 follow.
molecular target: human Werner helicase (WRN-BV08, Uniprot Q14191, amino acids 517-1235 with L1074F point mutation) (Homo sapiens, UniProt Q14191, L1074F); construct: Uniprot Q14191, amino acids 517-1235 with L1074F point mutation; TEV-cleavable 8×His (C, cleaved yes); made in house; host or cells: Sf9 insect cells (baculovirus); test: WRN (BV08) ADP-Glo Assay; assay type: biochemical; details: 0.15 nM WRN, 5 μM ATP, 0.1 nM DNA duplex, 15 min preincubation, 60 min at 25° C., pH 7.5, 1% DMSO; read-out: ADP-Glo_hWRN_IC50
pIC50: −log10 of the molar value.

- compound: "O=C(Cc1ccc(-n2cccc2)cc1)N(Cc1ccccn1)C1C=CS(=O)(=O)C1 (stereo not shown)"
  pIC50: "< 4.30"
- compound: "O=C(C(c1ccc(-c2ccc(F)c(F)c2)cc1F)n1cccn1)N(Cc1ccncc1)C1C=CS(=O)(=O)C1 (stereo not shown)"
  pIC50: "> 6.30"
- compound: "COc1cc(CN(C(=O)C(OCC2COC2)c2ccc(-c3ccc(F)c(F)c3)cc2F)[C@@H]2C=CS(=O)(=O)C2)ccn1 (stereo partly shown)"
  pIC50: "5.00 to 5.30"
- compound: "O=C(Cc1ccc(-n2cccc2)cc1)N(Cc1nc(C2CC2)cs1)[C@H]1C=CS(=O)(=O)C1"
  pIC50: "< 4.30"
- compound: "O=C(Cc1ccc(-n2cccc2)cc1)N(Cc1ccccc1)C1C=CS(=O)(=O)C1 (stereo not shown) [I-290]"
  pIC50: "5.00 to 5.30"
- compound: "CC(C)(O)c1cc(CN(C(=O)C(OCCC(F)(F)F)c2ccc(-c3ccc(F)c(F)c3)cc2F)[C@@H]2C=CS(=O)(=O)C2)ccn1 (single isomer, unassigned)"
  pIC50: "5.30 to 6.30"
- compound: "O=C(Cc1ccc(-n2cccc2)cc1)N(CCc1ccncc1)C1C=CS(=O)(=O)C1 (stereo not shown)"
  pIC50: "< 4.30"
- compound: "O=C(Cc1ccc(S(F)(F)(F)(F)F)cc1)N(Cc1cc(C2CC2)no1)C1C=CS(=O)(=O)C1 (stereo not shown)"
  pIC50: "5.30 to 6.30"
- compound: "O=C(Cc1ccc(-n2cccc2)cc1)N(Cc1cccc(F)c1F)C1C=CS(=O)(=O)C1 (stereo not shown)"
  pIC50: "5.30 to 6.30"
- compound: "CC(O)(c1cc(CN(C(=O)Cn2cc(-c3cc(F)c(F)c(F)c3)cn2)C2C=CS(=O)(=O)C2)ccn1)C1CC1 (stereo not shown)"
  pIC50: "> 6.30"
- compound: "CN(C)S(=O)(=O)c1ccc(CC(=O)N(Cc2ccncc2)C2C=CS(=O)(=O)C2)cc1 (stereo not shown)"
  pIC50: "< 4.30"
- compound: "O=C(Cc1ncc(-c2ccccc2)s1)N(Cc1ccncc1)C1C=CS(=O)(=O)C1 (stereo not shown)"
  pIC50: "4.30 to 5.00"
- compound: "O=C(Cn1cc(-c2cc(F)c(F)c(F)c2)cn1)N(Cc1ccc(OCc2ccncc2)cc1)C1C=CS(=O)(=O)C1 (stereo not shown)"
  pIC50: "> 6.30"
- compound: "O=C(Cc1ccc(C(F)(F)F)c(F)c1)N(Cc1ccncc1)C1C=CS(=O)(=O)C1 (stereo not shown)"
  pIC50: "5.00 to 5.30"
- compound: "O=C(Cn1cc(-c2cc(F)c(F)c(F)c2)cn1)N(Cc1ccnc(Oc2ccncc2)c1)C1C=CS(=O)(=O)C1 (stereo not shown)"
  pIC50: "> 6.30"
- compound: "O=C(Cn1cc(-c2ccc(F)c(F)c2)cn1)N(Cc1ccnc(N2CCNCC2)c1)C1C=CS(=O)(=O)C1 (stereo not shown)"
  pIC50: "5.30 to 6.30"
